Listing of recorded Kd by entry.
# TEST TARGET: TBC1D23 C-terminal domain (Mus musculus)
# Construct: TBC1D23 C-terminal domains were gel-filtered into buffer; GST (N, cleaved yes); made in house; host or cells: E. coli BL21 pLysS
# Sequence (Q8K0F1 559-684 limits assumed): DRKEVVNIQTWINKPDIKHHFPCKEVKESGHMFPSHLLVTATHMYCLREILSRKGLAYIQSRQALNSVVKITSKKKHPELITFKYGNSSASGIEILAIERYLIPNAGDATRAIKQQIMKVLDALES
# TEST METHOD NOTES: ITC of cargo and mutant syntaxin-16 peptides binding to wild-type TBC1D23 C-terminal domain
# CONDITION SET: 20°C, pH 7.4, bound given for peptides without measurable binding, read-out: Affinity
Residues, ends and D or L forms follow the SMILES beside them.

Some entries whose results are on file:
{"columns": ["COMPOUND", "TEST TARGET", "Kd"],
 "data": [
  ["CC(C)C[C@H](NC(=O)[C@@H](NC(=O)[C@H](CC(N)=O)NC(=O)[C@H](CC(=O)O)NC(=O)[C@@H](N)CC(=O)O)[C@@H](C)O)C(=O)N[C@@H](CO)C(=O)N[C@@H](Cc1c[nH]cn1)C(=O)N[C@@H](CCCNC(=N)N)C(=O)NCC(=O)N[C@@H](Cc1ccccc1)C(=O)N[C@H](C(=O)N[C@@H](CCC(=O)O)C(=O)N[C@@H](CC(=O)O)C(=O)O)[C@@H](C)O [STX16_YtoS] (H-DDNTLSHRGFTED-OH; N-terminus and C-terminus assumed)", "TBC1D23 C-terminal domain (Mus musculus)", "> 200 µM"],
  ["CC(C)[C@H](NC(=O)[C@@H](NC(=O)[C@H](CO)NC(=O)[C@H](Cc1ccc(O)cc1)NC(=O)[C@@H](NC(=O)[C@@H](NC(=O)[C@H](CC(N)=O)NC(=O)[C@H](C)NC(=O)[C@@H]1CCCN1C(=O)[C@H](CC(=O)O)NC(=O)[C@@H](N)CCC(=O)O)[C@@H](C)O)C(C)C)[C@@H](C)O)C(=O)N[C@@H](CCC(=O)O)C(=O)O [SLAMF7_TVY] (H-EDPANTVYSTVE-OH; N-terminus and C-terminus assumed)", "TBC1D23 C-terminal domain (Mus musculus)", "> 200 µM"]
]}

For the compound C[C@H](NC(=O)[C@@H](NC(=O)[C@H](CC(N)=O)NC(=O)[C@H](CC(=O)O)NC(=O)[C@@H](N)CC(=O)O)[C@@H](C)O)C(=O)N[C@@H](Cc1ccc(O)cc1)C(=O)N[C@@H](Cc1c[nH]cn1)C(=O)N[C@@H](CCCNC(=N)N)C(=O)NCC(=O)N[C@@H](Cc1ccccc1)C(=O)N[C@H](C(=O)N[C@@H](CCC(=O)O)C(=O)N[C@@H](CC(=O)O)C(=O)O)[C@@H](C)O [STX16_LtoA] (H-DDNTAYHRGFTED-OH; N-terminus and C-terminus assumed) , give its measured Kd value. > 200 µM

Data origin, for the record: paper PMC11093223
